# assay_explanation: Bioreversion: plasma stability, porcine plasma
# Type: in vitro ADME
observed_property: log10 of T1/2 (log10 of the value in min)
Annotation: log10 of T1/2, min basis.

[[record]]
molecule = "CCCCCc1cc(OC(=O)C(N)C(C)C)c2c(c1)OC(C)(C)C1CCC(C)=CC21 (centres unmarked) [THC-Valinate (6), Δ^9-THC-valinate]"
observed_property = "log10 of T1/2"
value = -0.12

[[record]]
molecule = "CCCCCc1cc(OC(=O)C(N)CC(C)C)c2c(c1)OC(C)(C)C1CCC(C)=CC21 (centres unmarked) [THC-Leucinate (8), Δ^9-THC-leucinate]"
observed_property = "log10 of T1/2"
value = 0.21

[[record]]
molecule = "CCCCCc1cc(OC(=O)[C@@H](N)Cc2ccc(O)cc2)c2c(c1)OC(C)(C)[C@@H]1CCC(C)=C[C@@H]21 [THC-Tyrosinate (11), Δ^9-THC-tyrosinate]"
observed_property = "log10 of T1/2"
value = -0.13

[[record]]
molecule = "CCCCCc1cc(OC(=O)[C@@H](N)CCC(N)=O)c2c(c1)OC(C)(C)[C@@H]1CCC(C)=C[C@@H]21 [THC-Glutaminate (9), Δ^9-THC-glutaminate]"
observed_property = "log10 of T1/2"
value = 0.12

[[record]]
molecule = "CCCCCc1cc(OC(=O)C(NC(=O)CCC(=O)O)C(C)C)c2c(c1)OC(C)(C)C1CCC(C)=CC21 (centres unmarked) [THC-Valinate-HS (15), THC-valinate-hemisuccinate]"
observed_property = "log10 of T1/2"
value = 0.91

[[record]]
molecule = "CCCCCc1cc(OC(=O)CNC)c2c(c1)OC(C)(C)[C@@H]1CCC(C)=C[C@@H]21 [THC-Sarcosinate (7), Δ^9-THC-sarcosinate]"
observed_property = "log10 of T1/2"
value = 0.05


Query molecule follows.
log10 of T1/2 for CCCCCc1cc(OC(=O)[C@@H](N)Cc2c[nH]c3ccccc23)c2c(c1)OC(C)(C)[C@@H]1CCC(C)=C[C@@H]21 [THC-Tryptophanate (10), Δ^9-THC-tryptophinate] ?
0.16

###

# assay_explanation: Thermal stability, 120° C. for 10 min
# Format: physicochemical
# condition_description: before heating
# THC content of the sample, initial annotations
Please reply with the bare figure in µg and do not write the unit itself.

Field: example entries. Status: answers known.
[[record]]
molecule = "CCCCCc1cc(OC(=O)C(N)C(C)C)c2c(c1)OC(C)(C)C1CCC(C)=CC21 (stereo not shown) [THC-Valinate (6), Δ^9-THC-valinate]"
value = 61.91

[[record]]
molecule = "CCCCCc1cc(OC(=O)[C@@H](N)Cc2c[nH]c3ccccc23)c2c(c1)OC(C)(C)[C@@H]1CCC(C)=C[C@@H]21 [THC-Tryptophanate (10), Δ^9-THC-tryptophinate]"
value = 97.38


THC content of the sample, initial for CCCCCc1cc(OC(=O)C(NC(=O)CCC(=O)O)C(C)C)c2c(c1)OC(C)(C)C1CCC(C)=CC21 (stereo not shown) [THC-Valinate-HS (15), THC-valinate-hemisuccinate] ?
96.52

Ok, now CCCCCc1cc(OC(=O)C(N)CC(C)C)c2c(c1)OC(C)(C)C1CCC(C)=CC21 (stereo not shown) [THC-Leucinate (8), Δ^9-THC-leucinate]
-6.13

###

# THC content of the sample, initial annotations
# assay_explanation: Thermal stability, 120° C. for 10 min
# Type: physicochemical
# condition_description: before heating
Please reply with the bare figure in µg and do not write the unit itself.

Field: example entries. Status: answers known.
[[record]]
compound = "CCCCCc1cc(OC(=O)[C@@H](N)Cc2ccc(O)cc2)c2c(c1)OC(C)(C)[C@@H]1CCC(C)=C[C@@H]21 [THC-Tyrosinate (11), Δ^9-THC-tyrosinate]"
value = 92.95

[[record]]
compound = "CCCCCc1cc(OC(=O)CCCc2ccc(NC(=O)CCC(=O)O)cc2)c2c(c1)OC(C)(C)[C@@H]1CCC(C)=C[C@@H]21"
value = 0


THC content of the sample, initial for CCCCCc1cc(OC(=O)CNC)c2c(c1)OC(C)(C)[C@@H]1CCC(C)=C[C@@H]21 [THC-Sarcosinate (7), Δ^9-THC-sarcosinate] ?
26.68

###

# assay_explanation: Bioreversion: plasma stability, porcine plasma
# Format: in vitro ADME
observed_property: K

[[record]]
compound = "CCCCCc1cc(OC(=O)C(N)C(C)C)c2c(c1)OC(C)(C)C1CCC(C)=CC21 (centres unmarked) [THC-Valinate (6), Δ^9-THC-valinate]"
value = "91.16 ± 10.91 ×10^−2 min^−1"


K for CCCCCc1cc(OC(=O)[C@@H](N)Cc2c[nH]c3ccccc23)c2c(c1)OC(C)(C)[C@@H]1CCC(C)=C[C@@H]21 [THC-Tryptophanate (10), Δ^9-THC-tryptophinate] ?
48.55 ± 5.90 ×10^−2 min^−1

Ok, now CCCCCc1cc(OC(=O)[C@@H](N)Cc2ccc(O)cc2)c2c(c1)OC(C)(C)[C@@H]1CCC(C)=C[C@@H]21 [THC-Tyrosinate (11), Δ^9-THC-tyrosinate]
93.53 ± 8.79 ×10^−2 min^−1

Ok, now CCCCCc1cc(OC(=O)[C@@H](N)CCC(N)=O)c2c(c1)OC(C)(C)[C@@H]1CCC(C)=C[C@@H]21 [THC-Glutaminate (9), Δ^9-THC-glutaminate]
53.41 ± 5.84 ×10^−2 min^−1

Ok, now CCCCCc1cc(OC(=O)C(NC(=O)CCC(=O)O)C(C)C)c2c(c1)OC(C)(C)C1CCC(C)=CC21 (centres unmarked) [THC-Valinate-HS (15), THC-valinate-hemisuccinate]
85.54 ± 3.74 ×10^−2 min^−1

Ok, now CCCCCc1cc(OC(=O)C(N)CC(C)C)c2c(c1)OC(C)(C)C1CCC(C)=CC21 (centres unmarked) [THC-Leucinate (8), Δ^9-THC-leucinate]
42.70 ± 3.58 ×10^−2 min^−1

Ok, now CCCCCc1cc(OC(=O)CNC)c2c(c1)OC(C)(C)[C@@H]1CCC(C)=C[C@@H]21 [THC-Sarcosinate (7), Δ^9-THC-sarcosinate]
63.16 ± 10.44 ×10^−2 min^−1

###

# assay_explanation: Aqueous solubility, pH dependent
# Type: physicochemical
# condition_description: aqueous medium, pH 7, aqueous buffer
observed_property: solubility (µM)
Please reply with the bare figure in µM and do not write the unit itself.

solubility for CCCCCc1cc(O)c2c(c1)OC(C)(C)C1CCC(C)=CC21 (stereo not shown) [THC, Δ^9-Tetrahydrocannabinol, reference compound] ?
2.23

###

# assay_explanation: Thermal stability, 120° C. for 10 min
# Format: physicochemical
# condition_description: 120° C. for 10 min
observed_property: Drug remaining (µg)
Please reply with the bare figure in µg and do not write the unit itself.

[[record]]
molecule = "CCCCCc1cc(OC(=O)[C@@H](N)Cc2c[nH]c3ccccc23)c2c(c1)OC(C)(C)[C@@H]1CCC(C)=C[C@@H]21 [THC-Tryptophanate (10), Δ^9-THC-tryptophinate]"
scale_unit = "µg"
value = 1216.70

[[record]]
molecule = "CCCCCc1cc(OC(=O)[C@@H](N)CCC(N)=O)c2c(c1)OC(C)(C)[C@@H]1CCC(C)=C[C@@H]21 [THC-Glutaminate (9), Δ^9-THC-glutaminate]"
scale_unit = "µg"
value = 721.31

[[record]]
molecule = "CCCCCc1cc(OC(=O)[C@@H](N)Cc2ccc(O)cc2)c2c(c1)OC(C)(C)[C@@H]1CCC(C)=C[C@@H]21 [THC-Tyrosinate (11), Δ^9-THC-tyrosinate]"
scale_unit = "µg"
value = 1138.93

[[record]]
molecule = "CCCCCc1cc(OC(=O)C(N)C(C)C)c2c(c1)OC(C)(C)C1CCC(C)=CC21 (stereo not drawn) [THC-Valinate (6), Δ^9-THC-valinate]"
scale_unit = "µg"
value = 1440.57

[[record]]
molecule = "CCCCCc1cc(OC(=O)C(NC(=O)CCC(=O)O)C(C)C)c2c(c1)OC(C)(C)C1CCC(C)=CC21 (stereo not drawn) [THC-Valinate-HS (15), THC-valinate-hemisuccinate]"
scale_unit = "µg"
value = 1350.13


Drug remaining for CCCCCc1cc(OC(=O)C(N)CC(C)C)c2c(c1)OC(C)(C)C1CCC(C)=CC21 (stereo not drawn) [THC-Leucinate (8), Δ^9-THC-leucinate] ?
1383.29

###

# First order rate constant annotations
# assay_explanation: Chemical stability pH dependent at 25° C.
# Format: physicochemical
# condition_description: Buffer pH 7.0, 25° C.
# Experimental: B. Chemical Stability pH Dependent at 25° C.

First order rate constant for CCCCCc1cc(OC(=O)C(N)C(C)C)c2c(c1)OC(C)(C)C1CCC(C)=CC21 (stereo not drawn) [THC-Valinate (6), Δ^9-THC-valinate] ?
47.13 ± 1.16 ×10^−3 h^−1

Ok, now CCCCCc1cc(OC(=O)[C@@H](N)CCC(N)=O)c2c(c1)OC(C)(C)[C@@H]1CCC(C)=C[C@@H]21 [THC-Glutaminate (9), Δ^9-THC-glutaminate]
153.42 ± 4.26 ×10^−3 h^−1

Ok, now CCCCCc1cc(OC(=O)CNC)c2c(c1)OC(C)(C)[C@@H]1CCC(C)=C[C@@H]21 [THC-Sarcosinate (7), Δ^9-THC-sarcosinate]
605.61 ± 125.14 ×10^−3 h^−1
